Values were extracted from patent US20250257059A1.

Please provide measured pIC50 for the entries that follow.
# target desc: full-length human PTPN2 (TC45) (1-387) (Homo sapiens (Human), UniProt P17706)
# Sequence (P17706 other isoform, or with tags, fused parts or gaps): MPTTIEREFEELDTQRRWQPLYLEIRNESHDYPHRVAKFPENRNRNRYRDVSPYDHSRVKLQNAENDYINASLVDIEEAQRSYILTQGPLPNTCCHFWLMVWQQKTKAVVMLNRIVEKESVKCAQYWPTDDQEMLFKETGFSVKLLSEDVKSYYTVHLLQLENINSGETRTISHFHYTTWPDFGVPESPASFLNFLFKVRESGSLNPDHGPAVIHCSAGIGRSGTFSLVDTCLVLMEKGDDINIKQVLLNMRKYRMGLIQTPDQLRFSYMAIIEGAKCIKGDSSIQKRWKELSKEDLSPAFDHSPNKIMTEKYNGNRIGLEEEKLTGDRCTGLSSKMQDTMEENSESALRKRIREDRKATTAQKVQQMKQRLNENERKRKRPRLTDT
Give bare numbers, as −log10 of the molar value.

Here is how some compounds turned out for pIC50.
• CC(C)(C)C1CN(CCc2cc(O)c(N3CC(=O)NS3(=O)=O)c(F)c2)C1 = 8.70
• CN1CCC(Cc2cc(O)c(N3CC(=O)NS3(=O)=O)c(F)c2)C1 (stereo not drawn) = 8.15

Shifting focus to the compound that follows.
Q: Which pIC50 is reported for this compound? CCCCN1CCC(Cc2cc(O)c(N3CC(=O)NS3(=O)=O)c(F)c2)C1 (stereo not drawn)
Ans: 7.06
